Each recorded value in this set is attributed to paper PMC9467613.

Consider the following binders; for each one, report its koff.
biological target: B7-H4 purified monomeric recombinant human protein (Homo sapiens, UniProt Q7Z7D3); assay: SPR
Sequence (Q7Z7D3 25-259): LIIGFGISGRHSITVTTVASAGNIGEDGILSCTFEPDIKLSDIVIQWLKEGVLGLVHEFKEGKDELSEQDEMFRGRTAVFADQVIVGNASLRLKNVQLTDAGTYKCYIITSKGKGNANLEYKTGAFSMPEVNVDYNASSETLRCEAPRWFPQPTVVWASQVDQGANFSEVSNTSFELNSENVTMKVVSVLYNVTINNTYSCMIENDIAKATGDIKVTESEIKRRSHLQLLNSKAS
Please reply with the bare figure in s⁻¹ and do not write the unit itself.

GET /values?readout=koff&item= B03 (scFv, V domains shown) VH: EVQLVESGGGVVQPGRSLRLSCAASGFTFGDRAMNWVRQAPGKGLEWVSAISGSGSGTYYADSVKGRFTISRDNSKNTLYLQMNSLRAEDTAVYYCARKRWYGMDVWGQGTTVTVSS VL: SYELTQPPSVSVAPGKTARITCGGNNIGMKSVHWYQQKPGQAPVLVVYDDSDRPSGIPERFSGSNSGNTATLTISRVEAGDEADYYCQVWDRGMIFGTGTKLTVL
2.1e-05

GET /values?readout=koff&item= B11 (scFv, V domains shown) VH: EVQLVESGGGVVQPGRSLRLSCAASGFTFTSRAMNWVRQAPGKGLEWVSAISGSGATAYYADSVKGRFTISRDNSKNTLYLQMNSLRAEDTAVYYCARKRWYGMDVWGQGTTVTVSS VL: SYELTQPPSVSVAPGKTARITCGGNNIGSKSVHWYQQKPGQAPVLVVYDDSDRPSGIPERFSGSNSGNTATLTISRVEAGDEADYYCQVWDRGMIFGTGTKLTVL
1.2e-05

GET /values?readout=koff&item= B06 (scFv, V domains shown) VH: EVQLVESGGGVVQPGRSLRLSCAASGFTFSNKAMNWVRQAPGKGLEWVSAISGSGATTYYADSVKGRFTISRDNSKNTLYLQMNSLRAEDTAVYYCARKRWYGMDVWGQGTTVTVSS VL: SYELTQPPSVSVAPGKTARITCGGNNIGVKAVHWYQQKPGQAPVLVVYDDSDRPSGIPERFSGSNSGNTATLTISRVEAGDEADYYCQVWDRGMIFGTGTKLTVL
1.7e-05

GET /values?readout=koff&item= A07 (scFv, V domains shown) VH: EVQLVESGGGVVQPGRSLRLSCAASGFTFSSRSMNWVRQAPGKGLEWVSAISGSGSTVYYADSVKGRFTISRDNSKNTLYLQMNSLRAEDTAVYYCARKRWYGMDVWGQGTTVTVSS VL: SYELTQPPSVSVAPGKTARITCGGNNIGSKSVHWYQQKPGQAPVLVVYDDSDRPSGIPERFSGSNSGNTATLTISRVEAGDEADYYCQVWDSRTYVFGTGTKLTVL
4.7e-05

GET /values?readout=koff&item= B02 (scFv, V domains shown) VH: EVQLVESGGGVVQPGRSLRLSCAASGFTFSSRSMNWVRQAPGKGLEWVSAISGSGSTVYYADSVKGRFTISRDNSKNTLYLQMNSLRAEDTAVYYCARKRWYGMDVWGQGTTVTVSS VL: SYELTQPPSVSVAPGKTARITCGGNNIGVKSVHWYQQKPGQAPVLVVYDDSDRSPGIPERFSGSNSGNTATLTISRVEAGDEADYYCQVWDSRTYVFGTGTKLTVL
1.1e-05

GET /values?readout=koff&item= A04 (scFv, V domains shown) VH: EVQLVESGGGVVQPGRSLRLSCAASGFTFSSRSMNWVRQAPGKGLEWVSAISGSGDTTYYADSVKGRFTISRDNSKNTLYLQMNSLRAEDTAVYYCARKRWYGMDVWGQGTTVTVSS VL: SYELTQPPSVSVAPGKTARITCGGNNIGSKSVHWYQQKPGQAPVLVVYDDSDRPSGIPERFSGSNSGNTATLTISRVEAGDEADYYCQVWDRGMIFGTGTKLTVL
2.1e-05

GET /values?readout=koff&item= A05 (scFv, V domains shown) VH: EVQLVESGGGVVQPGRSLRLSCAASGFTYSSRAMNWVRQAPGKGLEWVSAISGSGSNAYYADSVKGRFTISRDNSKNTLYLQMNSLRAEDTAVYYCARKRWYGMDVWGQGTTVTVSS VL: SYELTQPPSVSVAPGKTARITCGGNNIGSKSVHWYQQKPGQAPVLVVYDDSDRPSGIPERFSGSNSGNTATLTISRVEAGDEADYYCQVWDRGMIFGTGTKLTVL
2.2e-05

GET /values?readout=koff&item= A09 (scFv, V domains shown) VH: EVQLVESGGGVVQPGRSLRLSCAASGFTFSSRSMNWVRQAPGKGLEWVSAISGSGLTSYYADSVKGRFTISRDNSKNTLYLQMNSLRAEDTAVYYCARKRWYGMDVWGQGTTVTVSS VL: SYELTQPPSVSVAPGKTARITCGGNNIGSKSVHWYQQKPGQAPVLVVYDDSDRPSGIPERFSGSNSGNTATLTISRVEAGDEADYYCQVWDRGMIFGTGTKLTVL
1.1e-05

GET /values?readout=koff&item= A02 (scFv, V domains shown) VH: EVQLVESGGGVVQPGRSLRLSCAASGFTFTSRAMNWVRQAPGKGLEWVSAISYEGRTQYYADSVKGRFTISRDNSKNTLYLQMNSLRAEDTAVYYCARKRWYGMDVWGQGTTVTVSS VL: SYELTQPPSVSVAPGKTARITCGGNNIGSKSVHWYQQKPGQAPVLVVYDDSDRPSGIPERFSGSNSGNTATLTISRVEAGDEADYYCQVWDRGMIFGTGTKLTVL
1.1e-05

GET /values?readout=koff&item= B07 (scFv, V domains shown) VH: EVQLVESGGGVVQPGRSLRLSCAASGFTFGDRAMNWVRQAPGKGLEWVSAISGSGATTYYADSVKGRFTISRDNSKNTLYLQMNSLRAEDTAVYYCARKRWYGMDVWGQGTTVTVSS VL: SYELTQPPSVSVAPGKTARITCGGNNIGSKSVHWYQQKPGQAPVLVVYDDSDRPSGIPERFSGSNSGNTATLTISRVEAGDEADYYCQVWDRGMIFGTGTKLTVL
1.8e-05
